Origin of the recorded values: patent US11839671B2

Assay: Solubility of tin ions in polyol solutions with SnF2 at various pH (visual appearance)
Assay type: physicochemical
Details: aqueous polyol solution + 0.45 g SnF2; pH 4-6; cloudy = insoluble tin complexes formed
QUANTITY_NAME: Appearance of polyol solution with SnF2, pH 4-6

> print(dat)
                       structure.as.smiles  data.value
1                                 OCC(O)CO       Clear
2           OC[C@@H](O)[C@H](O)[C@@H](O)CO      Cloudy
3                   OC[C@@H](O)[C@@H](O)CO      Cloudy
4  OC[C@@H](O)[C@@H](O)[C@H](O)[C@@H](O)CO      Cloudy

====

Assay: Solubility of tin ions in polyol solutions with SnF2 at various pH (visual appearance)
Type: physicochemical
Conditions: aqueous polyol solution + 0.45 g SnF2; pH 8-10; cloudy = Sn(OH)2 formed
QUANTITY_NAME: Appearance of polyol solution with SnF2, pH 8-10

> print(dat)
                       structure.as.smiles  data.value
1  OC[C@@H](O)[C@@H](O)[C@H](O)[C@@H](O)CO       Clear
2                                 OCC(O)CO      Cloudy
3           OC[C@@H](O)[C@H](O)[C@@H](O)CO       Clear
4                   OC[C@@H](O)[C@@H](O)CO      Cloudy
